Tested on: Escherichia coli
Experiment: Antibacterial activity against Escherichia coli up to 100 ug/ml after 16 to 20 hrs by broth microdilution method
Format: functional, organism-based
Active and inactive are the calls of the source. The rule behind the calls is not given here.
Property name: Activity

A selection of reference data follows.
Task item: Please tell me: Activity of O=c1[nH]c(=O)n(COCCO)cc1Cl , system Escherichia coli?
Reply: inactive

Task item: Please answer likewise for [N-]=[N+]=NC(CBr)c1cn(COCCO)c(=O)[nH]c1=O (stereo not drawn)
Reply: inactive

Task item: Please answer likewise for [N-]=[N+]=NC(CCl)c1cn(COC(CO)CO)c(=O)[nH]c1=O (stereo not drawn)
Reply: inactive

Task item: Please answer likewise for O=c1[nH]c(=O)n(COCCO)cc1[N+](=O)[O-]
Reply: inactive

Task item: Please answer likewise for C=Cc1cn(COC(CO)CO)c(=O)[nH]c1=O
Reply: inactive

Further cases:
Task item: Please tell me: Activity of [N-]=[N+]=NC(CI)c1cn(COCCO)c(=O)[nH]c1=O (stereo not drawn) , system Escherichia coli?
Reply: inactive

Task item: Please answer likewise for CCCCCCCCC#Cc1cn(COC(CO)CO)c(=O)[nH]c1=O
Reply: inactive

Task item: Please answer likewise for C=Cc1cn(COCCO)c(=O)[nH]c1=O
Reply: inactive

Task item: Please answer likewise for CCc1cn(COCCO)c(=O)[nH]c1=O
Reply: inactive

###

Test system: Enterococcus faecalis
Assay: Antibacterial activity against Enterococcus faecalis up to 100 ug/ml after 16 to 20 hrs by broth microdilution method
Format: functional, organism-based
Active and inactive are the calls of the source. The rule behind the calls is not given here.
Property name: Activity

A selection of reference data follows.
Task item: Please tell me: Activity of CCCCCCCCCCC#Cc1cn(COCCO)c(=O)n(C#CCCCCCCCCCC)c1=O , system Enterococcus faecalis?
Reply: inactive

Task item: Please answer likewise for [N-]=[N+]=NC(CCl)c1cn(COCCO)c(=O)[nH]c1=O (configuration not stated)
Reply: inactive

Task item: Please answer likewise for C=Cc1cn(COC(CO)CO)c(=O)[nH]c1=O
Reply: inactive

Task item: Please answer likewise for Cc1cn(COCCO)c(=O)[nH]c1=O
Reply: inactive

Task item: Please answer likewise for [N-]=[N+]=NC(CI)c1cn(COC(CO)CO)c(=O)[nH]c1=O (configuration not stated)
Reply: inactive

Further cases:
Task item: Please tell me: Activity of O=c1[nH]c(=O)n(COCCO)cc1Cl , system Enterococcus faecalis?
Reply: inactive

Task item: Please answer likewise for O=c1[nH]c(=O)n(COC(CO)CO)cc1I [IODACYCLUR]
Reply: inactive

Task item: Please answer likewise for [N-]=[N+]=NC(CBr)c1cn(COC(CO)CO)c(=O)[nH]c1=O (configuration not stated)
Reply: inactive

Task item: Please answer likewise for [N-]=[N+]=NC(CI)c1cn(COCCO)c(=O)[nH]c1=O (configuration not stated)
Reply: inactive

Task item: Please answer likewise for O=c1[nH]c(=O)n(COCCO)cc1[N+](=O)[O-]
Reply: inactive

Task item: Please answer likewise for [N-]=[N+]=NC(CCl)c1cn(COC(CO)CO)c(=O)[nH]c1=O (configuration not stated)
Reply: inactive

Task item: Please answer likewise for [N-]=[N+]=NC(CBr)c1cn(COCCO)c(=O)[nH]c1=O (configuration not stated)
Reply: inactive
